- Experimental system: Nrg2 (UniProt P38082)
- Sequence: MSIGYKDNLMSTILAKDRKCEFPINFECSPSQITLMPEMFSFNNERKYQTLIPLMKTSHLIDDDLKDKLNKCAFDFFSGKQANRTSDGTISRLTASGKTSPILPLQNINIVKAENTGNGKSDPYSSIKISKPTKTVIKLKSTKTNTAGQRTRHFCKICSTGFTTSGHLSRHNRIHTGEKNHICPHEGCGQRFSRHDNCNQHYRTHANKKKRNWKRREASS
- Procedure details: PBM E-score (8-mer binding enrichment) (E-score (-0.5 to 0.5)); higher = stronger / more preferred TF binding
- Experimental setup: protein concentration: 100 nM; construct: GST-full length
In all, about 33,000 sequences were measured (“E-score (-0.5 to 0.5)”: median about -8e-05, highest 2% from about 0.23 on). What follows is part of a selection rich in the highest values, with near analogues and random picks from the rest.
// map PBM E-score onto a label; ranges low band = under 0.001, middle band = from 0.001 up to 0.1, high band = 0.1 and over

Q: Using the reported PBM E-score, which band applies to "CTTTGGGA" ?
Result: low band

Q: Into which category would you place "AACATATT" ?
Result: middle band

Q: Place this sequence in its band: "AGTTTGGG"
Result: middle band

Q: Tag the class for "AAGGGTCT"
Result: high band

Q: Hi there! Could you help me figure out the category for "GTTTGTGA" please?
Result: low band

Q: Could you tell me which band "CCGGGTCC" belongs to?
Result: low band

Q: Which PBM E-score category applies to "AAGGGTCA" here?
Result: high band

Q: Using the reported PBM E-score, which band applies to "ATCCCCAT" ?
Result: high band

* * *

- Experimental system: Nrg2 (UniProt P38082)
- Sequence: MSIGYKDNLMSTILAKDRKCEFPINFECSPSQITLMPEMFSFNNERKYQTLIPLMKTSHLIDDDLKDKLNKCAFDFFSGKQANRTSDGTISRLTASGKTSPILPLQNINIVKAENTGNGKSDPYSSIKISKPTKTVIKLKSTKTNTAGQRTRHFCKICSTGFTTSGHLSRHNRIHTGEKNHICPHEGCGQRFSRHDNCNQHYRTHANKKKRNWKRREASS
- Procedure details: PBM E-score (8-mer binding enrichment) (E-score (-0.5 to 0.5)); higher = stronger / more preferred TF binding
- Experimental setup: protein concentration: 100 nM; construct: GST-full length
The full ranking holds about 33,000 sequences; the median of “E-score (-0.5 to 0.5)” is about -8e-05, and the highest 2% start at about 0.23. The entries come from a sample that favours the highest values as a whole.
Measurement type: PBM E-score
The answer should be a number; do not append a unit.

Past entries and their recorded results:
[[record]]
sequence_record = "AGTATATA"
quantitative_result = 0.327

[[record]]
sequence_record = "ACCCGCGA"
quantitative_result = 0.174


Consider the record given below.
Q: Value lookup for PBM E-score; key = "GACCAAGA"
Result: 0.0552

* * *

- Experimental system: Nrg2 (UniProt P38082)
- Sequence: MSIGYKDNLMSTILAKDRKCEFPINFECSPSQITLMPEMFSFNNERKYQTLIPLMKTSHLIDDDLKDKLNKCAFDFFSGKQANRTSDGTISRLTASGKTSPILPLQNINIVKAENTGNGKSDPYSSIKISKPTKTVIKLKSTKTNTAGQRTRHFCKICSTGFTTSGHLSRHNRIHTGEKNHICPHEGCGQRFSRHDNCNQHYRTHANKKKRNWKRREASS
- Procedure details: PBM E-score (8-mer binding enrichment) (E-score (-0.5 to 0.5)); higher = stronger / more preferred TF binding
- Experimental setup: protein concentration: 100 nM; construct: GST-full length
The full ranking holds about 33,000 sequences; the median of “E-score (-0.5 to 0.5)” is about -8e-05, and the highest 2% start at about 0.23. The sample as a whole holds a higher share of the highest values than the screen did.
Measurement type: PBM E-score
// no unit string in output, number only

[[record]]
sequence_record = "CATTTCCC"
experimental_system = "Nrg2 (UniProt P38082)"
measurement_type = "PBM E-score"
quantitative_result = 0.201

[[record]]
sequence_record = "ACCTGGAA"
experimental_system = "Nrg2 (UniProt P38082)"
measurement_type = "PBM E-score"
quantitative_result = 0.203


// next item, PBM E-score requested
Q: Report PBM E-score for "AATTTATA" tested on Nrg2 (UniProt P38082).
Result: 0.201
